Tested on: PC-12
Assay: Cytotoxicity against rat PC12 cells assessed as reduction in cell viability at 100 uM incubated for 24 hrs by MTT assay
Type: toxicity, cell-based
Settings: pc-12, 24 h
Where a SMILES comes first, the peptide text is derived from it. [ ]: non-standard residue; d: D form. Nle = CCCC[C@H](N)C(=O)O
Measured metric: Activity

- CCCC[C@@H]1NC(=O)[C@@H](CC(C)C)NC(=O)[C@H](CCCCN)NC(=O)[C@@H](CO)NC(=O)[C@H](Cc2c[nH]cn2)NC(=O)[C@@H](Cc2c[nH]c3ccccc23)NC1=O (cyclo(K[dL][Nle][dW]H[dS])): Non-Toxic
- CCCC[C@@H]1NC(=O)[C@@H](CC(C)C)NC(=O)[C@H](CCCCN)NC(=O)[C@@H](CO)NC(=O)[C@H](Cc2c[nH]cn2)NC(=O)N(Cc2cc3ccccc3[nH]2)NC1=O: Toxic
- CCCC[C@@H]1NC(=O)[C@@H](CC(C)C)NC(=O)N(CCCCN)NC(=O)[C@@H](CO)NC(=O)[C@H](Cc2c[nH]cn2)NC(=O)[C@@H](Cc2c[nH]c3ccccc23)NC1=O (racemic): Non-Toxic
- CCCC[C@@H]1NC(=O)N(CC(C)C)NC(=O)[C@H](CCCCN)NC(=O)[C@@H](CO)NC(=O)[C@H](Cc2c[nH]cn2)NC(=O)[C@@H](Cc2c[nH]c3ccccc23)NC1=O (racemic): Toxic
- CCCC[C@@H]1NC(=O)[C@@H](CC(C)C)NC(=O)[C@H](CCCCN)NC(=O)[C@@H](CO)NC(=O)N(Cc2c[nH]nn2)NC(=O)[C@@H](Cc2c[nH]c3ccccc23)NC1=O (racemic): Non-Toxic
- CCCC[C@@H]1NC(=O)[C@@H](CC(C)C)NC(=O)[C@H](CCCCN)NC(=O)N(CCO)NC(=O)[C@H](Cc2c[nH]cn2)NC(=O)[C@@H](Cc2c[nH]c3ccccc23)NC1=O (racemic): Non-Toxic
- CCCCN1NC(=O)[C@@H](CC(C)C)NC(=O)[C@H](CCCCN)NC(=O)[C@@H](CO)NC(=O)[C@H](Cc2c[nH]cn2)NC(=O)[C@@H](Cc2c[nH]c3ccccc23)NC1=O (racemic): Non-Toxic

These measurements were taken from ChEMBL document CHEMBL5352498.
